Subject of test: Peptide deformylase (Escherichia coli, UniProt Q9JN24)
Sequence (Q9JN24 whole entry): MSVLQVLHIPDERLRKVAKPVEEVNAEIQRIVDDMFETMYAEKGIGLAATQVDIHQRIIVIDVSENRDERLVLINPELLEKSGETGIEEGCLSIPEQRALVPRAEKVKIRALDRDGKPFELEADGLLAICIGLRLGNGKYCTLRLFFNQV
Lab note: class by IC50, see band 1: < 0.02 µM; band 2: ≥ 0.02 µM and < 0.05 µM; band 3: ≥ 0.05 µM

// below: answered molecules
In [3]: df
Out[3]:
                                   molecule                           subject_of_test  category
0  CCCC[C@H](CN(O)C=O)C(=O)N[C@H](C(=O)O)C(C)(C)C  Peptide deformylase (Escherichia coli, UniProt Q9JN24)    band 3
1  CCCC[C@H](CN(O)C=O)C(=O)N[C@H](C(=O)N(C)C)C(C)(C)C (stereo in doubt; form 2)  Peptide deformylase (Escherichia coli, UniProt Q9JN24)    band 2
2  CCCC[C@H](CN(O)C=O)C(=O)N[C@H](C(=O)N1CCCc2ccccc21)C(C)(C)C  Peptide deformylase (Escherichia coli, UniProt Q9JN24)    band 1
3  CCCC[C@H](CN(O)C=O)C(=O)N[C@@H](CCCCN(C)C)C(=O)N(C)C  Peptide deformylase (Escherichia coli, UniProt Q9JN24)    band 3
4  CCCC[C@H](CN(O)C=O)C(=O)N[C@@H](CCCCN)C(=O)N(C)C  Peptide deformylase (Escherichia coli, UniProt Q9JN24)    band 3

Into which category would you place CCCC[C@H](CN(O)C=O)C(=O)N[C@@H](CC(=O)OCc1ccccc1)C(=O)N(C)C ? band 3

What would you report for CCCC[C@H](CN(O)C=O)C(=O)N[C@@H](C)C(=O)N(C)C ? band 2

What would you report for CCCC[C@H](CN(O)C=O)C(=O)N[C@@H](CC1CCCCC1)C(=O)N(C)C ? band 2

What would you report for CCCC[C@H](CN(O)C=O)C(=O)N[C@@H](CSCc1ccccc1)C(=O)N(C)C ? band 3

What would you report for CCCC[C@H](CN(O)C=O)C(=O)N[C@H](C(=O)N1CCC(C(C)=O)CC1)C(C)(C)C ? band 1
